System: SGK-1 dependent phosphorylation of GSK3beta in U2OS cells
Assay: SGK-1 dependent phosphorylation of GSK3beta in U2OS cells overexpressing recombinant SGK-1 and GSK3beta
Type: cell-based, human
Conditions: U2OS cells, 6 h incubation, ratio of phosphorylated GSK3beta to total GSK3beta; read-out: IC50 values for inhibition of SGK-1 dependent phosphorylation of GSK3beta in U2OS cells
REPORTED METRIC: pIC50
Answer as the number alone; pIC50 is minus log10 of concentration in mol/L.

Cc1ccc(F)c(S(=O)(=O)Nc2ccc(-c3nc(OCC4CNC(=O)C4)c4cn[nH]c4n3)cc2)c1 (stereo not drawn): 5.43
Cc1ccc(C#N)c(S(=O)(=O)Nc2ccc(-c3nc(OC4CNC4)c4cn[nH]c4n3)cc2)c1: 6.05
COc1ccc(Cl)c(S(=O)(=O)Nc2ccc(-c3nc(C)c4cn[nH]c4n3)cc2)c1: 5.70
COCCc1nc(-c2ccc(NS(=O)(=O)c3cc(Cl)ccc3Cl)cc2)nc2[nH]nc(N)c12: 6.21
NCCCOc1nc(-c2ccc(NS(=O)(=O)c3cccc(Cl)c3Cl)cc2)nc2[nH]ncc12: 6.25
O=S(=O)(Nc1ccc(-c2nc(O[C@H]3CCCC(O)C3)c3cn[nH]c3n2)cc1)c1cc(Cl)ccc1F (stereo partly drawn): 5.92
O=S(=O)(Nc1ccc(-c2nc(O[C@@H]3CCC[C@H]3O)c3cn[nH]c3n2)cc1)c1cc(Cl)ccc1Cl: 5.35
Cc1ccc(C#N)c(S(=O)(=O)Nc2ccc(-c3nc(NC4CCC(O)CC4)c4c(C)n[nH]c4n3)cc2)c1 (stereo not drawn): 5.77
Cc1n[nH]c2nc(-c3ccc(NS(=O)(=O)c4cc(Cl)ccc4Cl)cc3)nc(OC3CCN(CCF)CC3)c12: 6.55
CC(C)Oc1nc(-c2ccc(NS(=O)(=O)c3cc(Cl)ccc3Cl)cc2)nc2[nH]nc(N)c12: 6.46

Value (pIC50, SGK-1 dependent phosphorylation of GSK3beta in U2OS cells) for record Cc1n[nH]c2nc(-c3ccc(NS(=O)(=O)c4cc(C#N)ccc4F)cc3)nc(OC3CCC(O)CC3)c12 (stereo not drawn) = 5.44

Value (pIC50, SGK-1 dependent phosphorylation of GSK3beta in U2OS cells) for record COCCc1nc(-c2ccc(NS(=O)(=O)c3cc(OC)ccc3C#N)cc2)nc2[nH]nc(N)c12 = 6.32

Value (pIC50, SGK-1 dependent phosphorylation of GSK3beta in U2OS cells) for record Cc1ccc(C#N)c(S(=O)(=O)Nc2ccc(-c3nc(CCCCl)c4cn[nH]c4n3)cc2)c1 = 4.96

Value (pIC50, SGK-1 dependent phosphorylation of GSK3beta in U2OS cells) for record COc1ccc(F)c(S(=O)(=O)Nc2ccc(-c3nc(OCCCN)c4cn[nH]c4n3)cc2)c1 = 6.64

Value (pIC50, SGK-1 dependent phosphorylation of GSK3beta in U2OS cells) for record Cc1n[nH]c2nc(-c3ccc(NS(=O)(=O)c4ccccc4F)cc3)nc(OC3CCNCC3F)c12 (stereo not drawn) = 7.10
